# TARGET: T1, recombinant mouse HGF (R&D Systems) (mouse, UniProt Q08048 33-728)
# T1 construct: Bought protein, construct not described; also called rmHGF (R&D Systems); murine HGF
# T1 sequence (Q08048 33-728 limits assumed): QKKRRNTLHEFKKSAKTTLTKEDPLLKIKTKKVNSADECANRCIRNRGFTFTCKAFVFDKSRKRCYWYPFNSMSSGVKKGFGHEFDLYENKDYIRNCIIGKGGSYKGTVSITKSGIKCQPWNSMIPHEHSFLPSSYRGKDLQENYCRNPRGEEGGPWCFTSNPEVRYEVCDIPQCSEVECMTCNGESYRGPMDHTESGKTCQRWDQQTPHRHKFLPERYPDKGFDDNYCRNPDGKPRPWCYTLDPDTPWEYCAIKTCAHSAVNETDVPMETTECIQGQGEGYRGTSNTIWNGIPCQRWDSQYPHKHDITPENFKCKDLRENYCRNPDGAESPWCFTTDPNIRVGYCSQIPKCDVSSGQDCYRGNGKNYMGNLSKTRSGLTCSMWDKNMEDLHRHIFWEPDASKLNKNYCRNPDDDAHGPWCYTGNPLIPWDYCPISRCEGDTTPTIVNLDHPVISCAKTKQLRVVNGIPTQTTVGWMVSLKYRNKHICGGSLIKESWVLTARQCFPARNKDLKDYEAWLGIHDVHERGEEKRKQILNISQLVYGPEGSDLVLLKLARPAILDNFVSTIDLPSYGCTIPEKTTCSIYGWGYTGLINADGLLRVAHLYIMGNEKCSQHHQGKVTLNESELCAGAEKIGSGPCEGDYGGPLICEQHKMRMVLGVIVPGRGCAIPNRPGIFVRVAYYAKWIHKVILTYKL
# ASSAY_NAME: SPR, antibody immobilized, HGF protein injected, 25 C
MEASUREMENT_LABEL: binding result

Example binders with recorded binding result:
1. anti-hHGF monoclonal antibody 1F3 (antibody, mouse IgG1, kappa, V domains shown, Murine IgG1 kappa from hybridoma) VH: EVQLVESGGGLVQSGGSLKLSCAASGFTFSNYFMSWVRQTPEKRLEWVAYISSGGGSTYYPDSVKGRFTISRDNAKNTLYLQMSSLKSEDTAMYYCVRQGDGYYGDYAMDYWGQGTSVTVSS VL: DIQMTQSPASLSVSVGETVTITCRASENIYSNLAWYQQKQGKSPQLLVYDATHLPDGVPSRFSGSGSGTQFSLKINSLQSEDFGSYYCQHFWGTPYTFGGGTRLEIKR
binds
2. anti-hHGF monoclonal antibody 1D3 (antibody, mouse IgG1, kappa, V domains shown, Murine IgG1 kappa from hybridoma) VH: EVQLVESGGGLVQPGGSLKLSCAASGFTFSDYYMSWVRQTPEKRLEWVAYISSGGGSTYYPDSVKGRFTISRDNAKNTLYLQMSSLKSEDTAIYYCVRQGDGYYGDYAMDYWGQGTSVIVSS VL: DIQMTQSPASLSVSVGETVTITCRTSENIYSNLAWYQQKQGKSPQLLIYAATNLADGVPSRFSGSGSGTQFSLRINSLQSEDFGRYYCQHFWGTPYTFGGGTKLEIKR
no binding
3. anti-hHGF monoclonal antibody 2F8 (antibody, mouse IgG1, kappa, V domains shown, Murine IgG1 kappa from hybridoma) VH: QVQLKQSGAELVRPGTSVKMSCKASGYTFTTYYIHWVNQRPGQGLEWIGKIGPGSGSTYYNEMFKDKATLTVDTSSSTAYMQLSSLTSDDSAVYFCARRGLGRGFDYWGQGTTLTVSS VL: DIVLTQSPASLAVSLGQRATISCKASQSVDYDGNSYINWYQQKPGQPPKVLIYVASNLESGIPARFSGSGSGTDFTLNIHPVEEEDAATYYCQQSIEDPPTFGAGTKLELKR
binds
4. anti-hHGF monoclonal antibody 3B6 (antibody, mouse IgG1, kappa, V domains shown, Murine IgG1 kappa from hybridoma) VH: QVQLQQSGAELVRPGSSVKISCKASGYVFSSYWMNWVKQRPGQGLEWIGQIYPGDGDSNYNGNFKGKATLTADKSSSTAYMQLSSLTSEDSAVYFCASQLGLRENYFDYWGQGTTLTVSS VL: DIKMTQSPSSMYASLGERVTITCKASQDIKSYLSWFQQKPGKSPKTLIYRVNRLVDGVPSRFSGSGSGQDSSLTITSLENEDMGIYYCLQYDEFPFTFGGGTKLEIKR
no binding
5. anti-hHGF monoclonal antibody 3D11 (antibody, mouse IgG1, kappa, V domains shown, Murine IgG1 kappa from hybridoma) VH: QVQLKESGPGLVAPSQSLSITCTVSGFSLTSYSLHWVRQPPGKGLEWLGVIWAGGNTNYNSSLMSRLTIRKDNSKSQVFLKMNSLQTDDTAMYYCARERFAYWGQGTLVTVSA VL: QIVLTQSPAIMSAYPGEKVTMTCSASSSVSYMHWYQQKSGTSPKRWIYDTSKLASGVPARFSGSGSGTSYSLTISSMEAEDAATYYCQQWSSNPLTFGAGTKLELKR
no binding

[Q] binding result for anti-hHGF monoclonal antibody 3A12 (antibody, mouse IgG1, kappa, V domains shown, Murine IgG1 kappa from hybridoma) VH: EVQLVESGGGLVQPGGSLKISCAASGFTFSNYFMSWVRQTPEKRLEWVAYISSGGGSTYYPDSVKGRFTISRDNAKNTLYLQMNSLKSEDTAMYYCVRQGDGYYGDYAMDYWGQGTSVTVSS VL: DIQMTQSPASLSVSVGETVTITCRASENIYINLAWYQQKQGKSPQLLVHAATKLADGVPSRFSGSGSGTQYSLKINSLQSEDFGSYYCQHFWGTPYTFGGGTKLEIKR ?
[A] no binding

[Q] Which binding result is listed for anti-hHGF monoclonal antibody 1A3 (antibody, mouse IgG1, kappa, V domains shown, Murine IgG1 kappa from hybridoma) VH: EVQLVESGGGLVQPGGSLKLSCAASEFTFSNYYMSWVRQTPEKRLQWVAYISPGGGSSYYPASVKGRFTISRDNAKNTLYLQMSSLKSEDTAMYYCARQGDGYYGDYAMDYWGQGTSVTVSS VL: DIQMTQSPASLSVSVGETVTITCRASENIYSNLAWYQQKQGKSPQLLVYAATNLADGVPSRFSGSGSGTQFSLKINSLQSEDFGTYYCQHFWGTPYTFGGGTKLEIKR ?
[A] no binding

From: patent US20140178935A1
